biological target: EGFR (form in the assay not stated) (human, UniProt P00533 25-645, limits assumed); experiment: ELISA, NEM conjugate 100 nM
reportedEndpoint: binding ratio vs parent P54AR4-83v2 (ratio)
Note: unit ratio is implicit; provide only the numeric part.

Query: Specify measured binding ratio vs parent P54AR4-83v2 for P54AR4-83v2 V12C, NEM conjugate (designed binder, NEM on Cys 12, His-tagged) LPAPKNLVVSECTEDSARLSWDDPWAFYESFLIQYQESEKVGEAIVLTVPGSERSYDLTGLKPGTEYTVSIYGVHNVYKDTNMRGLPLSAIFTT .
Result: 1.06

For the next question, use this binder.
Query: Supply reported binding ratio vs parent P54AR4-83v2 belonging to this binder: P54AR4-83v2 W25C, NEM conjugate (designed binder, NEM on Cys 25, His-tagged) LPAPKNLVVSEVTEDSARLSWDDPCAFYESFLIQYQESEKVGEAIVLTVPGSERSYDLTGLKPGTEYTVSIYGVHNVYKDTNMRGLPLSAIFTT
Result: 0.64
